The entries below are paired with their reported Potency.
# Tested on: 6-phosphofructokinase (Trypanosoma brucei)
# assay.notes: Confirmatory Assay to Find Inhibitors of T. brucei phosphofructokinase: High ATP
# condition.context: T. brucei PFK, Kinase-Glo luminescence; series mostly up to 57.5 µM
Results filed as inconclusive are left out. Calls of active or inactive are those of the source. The call rests on the fitted dose curve; in most records, active means well fitted inhibition curve with a large enough effect; inconclusive means small, poorly fitted or top-dose-only effect; inactive means flat fitted curve, though single readings scatter.
metric: Potency

>>> result("Cc1cc(NS(=O)(=O)c2ccc(NC(=O)CCc3ccc(Cl)c(Cl)c3)cc2)no1")
"16.3 µM (active)"
>>> result("O=C(Cc1ccc(Cl)c(Cl)c1)Nc1ccc(S(=O)(=O)Nc2ccn[nH]2)cc1")
"0.73 µM (active)"
>>> result("Cc1cc(N[S+](=O)([O-])c2ccc3cc(NC(=O)Cc4ccc(Cl)c(Cl)c4)ccc3c2)no1")
"6.51 µM (active)"
